target: Neu5Ac(a2-6)Gal(b1-4)GlcNAc(b1-2)Man(a1-3)[GlcNAc(b1-2)Man(a1-6)]Man(b1-4)GlcNAc(b1-4)GlcNAc; assay: glycan array binding signal (z-score within array); higher = stronger binding; details: glycan notation: IUPAC condensed, linker removed
About 410 targets per protein were measured; listed, in parts, are those with the strongest signals and a random draw of the rest.
Kindly note that classification relies on glycan array binding signal (z-score) with these boundaries: low interval (below -0.5), middle interval (-0.5 to below 0.3), high interval (0.3 or more)

Here's what some known entries look like.
PFL (Pseudomonas fluorescens) (protein) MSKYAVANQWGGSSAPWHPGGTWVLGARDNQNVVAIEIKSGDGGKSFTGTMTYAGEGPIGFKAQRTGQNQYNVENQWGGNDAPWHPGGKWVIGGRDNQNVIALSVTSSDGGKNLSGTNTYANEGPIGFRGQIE
high interval
Clec12b (Mus musculus), Q149M0 (protein) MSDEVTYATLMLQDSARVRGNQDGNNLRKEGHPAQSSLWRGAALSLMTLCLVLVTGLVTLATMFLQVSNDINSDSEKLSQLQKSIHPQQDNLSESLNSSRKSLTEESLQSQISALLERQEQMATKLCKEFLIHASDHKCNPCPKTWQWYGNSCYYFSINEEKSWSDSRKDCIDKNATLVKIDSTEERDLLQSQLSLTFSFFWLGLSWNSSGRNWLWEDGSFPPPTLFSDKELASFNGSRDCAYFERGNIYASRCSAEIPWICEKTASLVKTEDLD
low interval
EPL1 (Trichoderma atroviride), A0PCX2 (protein) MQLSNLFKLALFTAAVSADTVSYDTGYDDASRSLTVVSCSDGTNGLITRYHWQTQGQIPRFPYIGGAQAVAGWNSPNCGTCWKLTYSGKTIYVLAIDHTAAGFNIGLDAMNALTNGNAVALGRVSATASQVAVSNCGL
middle interval
CLEC9a (Mus musculus), Q8BRU4 (protein) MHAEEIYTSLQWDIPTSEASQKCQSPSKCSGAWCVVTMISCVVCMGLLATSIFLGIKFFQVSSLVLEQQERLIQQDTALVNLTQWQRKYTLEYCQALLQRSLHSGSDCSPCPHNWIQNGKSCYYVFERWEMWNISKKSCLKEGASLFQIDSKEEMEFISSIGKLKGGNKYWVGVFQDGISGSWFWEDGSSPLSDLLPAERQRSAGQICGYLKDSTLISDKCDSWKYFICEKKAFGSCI
middle interval
GS13455A-bfa-343-25-343 (Bacteroides fragilis) (protein) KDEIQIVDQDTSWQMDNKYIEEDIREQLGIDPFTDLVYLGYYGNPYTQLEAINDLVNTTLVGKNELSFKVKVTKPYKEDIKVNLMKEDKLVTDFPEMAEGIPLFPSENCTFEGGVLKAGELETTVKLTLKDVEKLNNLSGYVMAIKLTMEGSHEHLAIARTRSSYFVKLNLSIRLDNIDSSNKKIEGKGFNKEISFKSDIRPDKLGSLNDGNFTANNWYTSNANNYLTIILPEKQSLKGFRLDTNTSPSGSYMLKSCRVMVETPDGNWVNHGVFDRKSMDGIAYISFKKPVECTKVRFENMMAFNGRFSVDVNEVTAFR
high interval

// return the class label for SLR2P3F12 (Tachypleus tridentatus), TAL2_TACTR (protein) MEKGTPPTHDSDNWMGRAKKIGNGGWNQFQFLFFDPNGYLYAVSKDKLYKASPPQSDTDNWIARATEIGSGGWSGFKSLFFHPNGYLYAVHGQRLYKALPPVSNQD
middle interval

Category lookup for the binder Calsepa (Calystegia sepium), P93114 (protein) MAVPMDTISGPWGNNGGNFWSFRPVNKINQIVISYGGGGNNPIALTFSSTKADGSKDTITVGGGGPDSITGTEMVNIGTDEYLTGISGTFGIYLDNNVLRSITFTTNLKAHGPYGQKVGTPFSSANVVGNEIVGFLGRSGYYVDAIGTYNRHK
high interval

Given AMA (Arum maculatun) (protein) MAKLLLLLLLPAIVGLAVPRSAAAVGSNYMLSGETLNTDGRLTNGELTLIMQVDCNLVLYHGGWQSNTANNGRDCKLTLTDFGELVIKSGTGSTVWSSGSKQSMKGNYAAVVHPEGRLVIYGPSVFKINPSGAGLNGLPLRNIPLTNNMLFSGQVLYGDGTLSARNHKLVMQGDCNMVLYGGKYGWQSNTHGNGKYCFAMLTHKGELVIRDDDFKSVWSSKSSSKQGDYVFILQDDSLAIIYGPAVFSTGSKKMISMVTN , name the class its glycan array binding signal (z-score) places it in.
high interval
